The origin of these recorded values is the supplement of paper PMC10065799.

Catalogue of sequences with associated phosphorylation enrichment
targetUnderTest: EPHB1 (UniProt P54762)
Sequence (P54762 whole entry, looked up): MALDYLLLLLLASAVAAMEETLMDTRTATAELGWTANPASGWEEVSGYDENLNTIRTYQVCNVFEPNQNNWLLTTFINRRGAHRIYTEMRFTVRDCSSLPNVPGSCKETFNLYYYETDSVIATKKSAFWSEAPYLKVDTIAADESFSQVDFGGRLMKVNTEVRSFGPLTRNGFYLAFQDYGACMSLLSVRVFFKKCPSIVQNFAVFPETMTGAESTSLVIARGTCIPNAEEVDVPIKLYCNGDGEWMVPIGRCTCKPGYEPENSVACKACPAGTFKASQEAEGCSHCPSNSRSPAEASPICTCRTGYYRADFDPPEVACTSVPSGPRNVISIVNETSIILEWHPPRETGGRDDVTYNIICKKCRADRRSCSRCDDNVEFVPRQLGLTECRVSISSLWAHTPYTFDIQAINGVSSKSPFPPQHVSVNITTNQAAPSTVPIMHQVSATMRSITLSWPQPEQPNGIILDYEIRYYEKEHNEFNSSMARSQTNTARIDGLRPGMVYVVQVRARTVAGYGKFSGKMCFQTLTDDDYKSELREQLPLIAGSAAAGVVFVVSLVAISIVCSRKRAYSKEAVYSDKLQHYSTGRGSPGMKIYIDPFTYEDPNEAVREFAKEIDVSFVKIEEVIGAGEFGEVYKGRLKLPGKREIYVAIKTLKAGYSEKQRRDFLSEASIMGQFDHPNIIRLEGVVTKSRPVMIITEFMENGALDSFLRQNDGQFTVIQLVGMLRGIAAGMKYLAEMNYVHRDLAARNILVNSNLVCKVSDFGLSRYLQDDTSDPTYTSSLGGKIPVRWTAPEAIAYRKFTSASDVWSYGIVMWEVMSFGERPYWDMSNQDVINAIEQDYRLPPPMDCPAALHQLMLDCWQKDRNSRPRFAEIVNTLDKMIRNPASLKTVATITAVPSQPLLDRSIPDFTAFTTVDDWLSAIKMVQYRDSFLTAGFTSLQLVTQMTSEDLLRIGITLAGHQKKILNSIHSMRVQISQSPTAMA
procedureText: phosphorylation enrichment, bacterial display (enrichment ratio); higher = better substrate or ligand; peptides without Tyr show the background;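 further: 11-residue human phosphosite peptides and single-mutation variants displayed on the E. coli surface, counted by deep sequencing, each peptide's frequency after selection divided by its frequency in the unselected input library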;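 further: frequency after pTyr selection over input frequency; kinase dosed for 20-30% of maximal phosphorylation in three min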
Please reply with the number alone, leaving off any unit.

Task: Supply phosphorylation enrichment measured with EPHB1 (UniProt P54762) for REEIKYMLWLS [OTC_Y55_G50R] .
Output: 0.697

Task: For EPHB1 (UniProt P54762), give phosphorylation enrichment of the listed sequence: CKLFQYFLDHL [ATRX_Y1849_YF]
Output: 0.693

Task: Provide the reported phosphorylation enrichment (system: EPHB1 (UniProt P54762)) for LLARLYRGQAL [FGFR4_Y390_G388R]
Output: 0.713

Task: Report phosphorylation enrichment from EPHB1 (UniProt P54762) testing of FSAPNYCYRCG [PPP2CA_Y265]
Output: 0.498

Task: # lookup: EPHB1 (UniProt P54762) phosphorylation enrichment, key = LKGQVYILVRE [ASS1_Y359_G362V]
Output: 0.682
